Below is a list of entries, each paired with its recorded GI50 value.
Tested on: NCI-H522
Assay: NCI tumour cell line growth inhibition, 48 h
Calls of active or inactive are those of the source. Rule as the data show it: active = GI50 up to about 1.1 µM and inactive = higher.

[[record]]
compound = "O=[N+]([O-])c1cnc(N(CCO)CCO)s1"
meas_value = "> 100 µM (inactive)"

[[record]]
compound = "Cn1cc(S(=O)(=O)NC(=O)Nc2ccc(Cl)cc2)c2ccccc21"
meas_value = "24.5 µM (inactive)"


Task: Recorded GI50 for C=C(CN(C)C)C(=O)c1ccccc1OC , please?
Output: 2.04 µM (inactive)

Task: Next entry: CN1C(C)(C)CC(=O)C(Br)C1(C)C (stereo not drawn)
Output: > 100 µM (inactive)

Task: Also check CCC(C)CC(C)CC(C)/C=C(\C)C1=C(C)CC(C)(O)O1 (stereo not drawn)
Output: 42.2 µM (inactive)

Task: Now the compound CN(C)CCNC(=O)c1cccc2ccc(-c3ccc(Br)cc3)nc12
Output: 1.6 µM (inactive)

Task: Moving on to CC(C)(C)c1ccc(O)c(C(O)c2ccncc2)c1 (stereo not drawn)
Output: > 100 µM (inactive)
